The values you see were collected from patent US8178506B2.

Form field: PEPCKc mRNA (one value per entry).
Test system: PEPCK-c
procedure_summary: PEPCK-c mRNA expression in HepG2 cells
Assay type: cell-based, human
assay_conditions: HepG2 cells, Experiment 1, basal (no insulin), four hours; UTC = 100
Description: Approximately 28 hours after transfection, the cells are subjected to serum starvation for a period of 12 to 16 hours, using serum-free growth medium. […] Following insulin treatment (forty-eight hours after transfection), total RNA is harvested from all samples, and the amount of total RNA from each sample is determined using a Ribogreen assay (Invitrogen Corporation, Carlsbad, Calif.). […]
In the oligonucleotide strings, read from the 5' end, every base follows the letter of its sugar. An asterisk marks phosphorothioate; unmarked linkages are phosphodiester. Other units and linkages are bracketed, terminal groups are in braces. A string of capitals states the bases alone. e = 2'-O-(2-methoxyethyl) (MOE); [5mC] = 5-methylcytosine

Sample answers from the record:
>  <substance>
327923 (antisense eG*eA*eA*eA*eG*eA*eG*eA*e[5mC]*e[5mC]*eG*eG*eT*eT*e[5mC]*eA*e[5mC]*eT*eG*eT*eG*eA) [compound 327923]

>  <PEPCKc mRNA>
83

$$$$
>  <substance>
327916 (antisense eT*eG*eG*e[5mC]*eA*eT*eT*e[5mC]*eA*e[5mC]*e[5mC]*eG*e[5mC]*eG*eT*eG*e[5mC]*e[5mC]*eT*eT*eA*eA) [compound 327916]

>  <PEPCKc mRNA>
88

$$$$

Q: Specify measured PEPCKc mRNA for 327920 (antisense eG*eA*eG*eA*e[5mC]*e[5mC]*e[5mC]*eA*eG*eT*eA*eG*e[5mC]*e[5mC]*eA*eG*eA*eT*eG*eT*eA*eG*e[5mC]*eT) [compound 327920] .
A: 52

###

Test system: PPARγ
procedure_summary: PPARγ mRNA expression in adipocytes (real-time PCR)
Assay type: cell-based, human
assay_conditions: differentiating adipocytes transfected with oligomeric compound; Table 75
In the oligonucleotide strings, read from the 5' end, every base follows the letter of its sugar. An asterisk marks phosphorothioate; unmarked linkages are phosphodiester. Other units and linkages are bracketed, terminal groups are in braces. A string of capitals states the bases alone. e = 2'-O-(2-methoxyethyl) (MOE); [5mC] = 5-methylcytosine
substances and their reported PPAR gamma mRNA

Reference set (3 entries):
>  <substance>
328125 (antisense eT*eA*eT*eG*eA*eA*eA*eT*eG*e[5mC]*e[5mC]*eA*eG*eA*eG*e[5mC]*eT*eG*e[5mC]*e[5mC]*eA) [compound 328125]

>  <experimental_result>
68 percentage of untreated control (UTC)

$$$$
>  <substance>
328115 (antisense eA*eG*eA*eA*eG*eG*eT*eG*eG*eG*eG*eA*eG*e[5mC]*eA*eG*e[5mC]*eG*eT*e[5mC]*eA) [compound 328115]

>  <experimental_result>
80 percentage of untreated control (UTC)

$$$$
>  <substance>
327949 (antisense e[5mC]*eA*e[5mC]*eA*eA*eA*eT*eT*e[5mC]*eG*eG*eA*eT*e[5mC]*eT*eA*e[5mC]*eA*eG*eG*eG*eT*eA) [compound 327949]

>  <experimental_result>
54 percentage of untreated control (UTC)

$$$$

Q: In one line, give reported PPAR gamma mRNA of the entry 328097 (antisense eT*eG*eT*e[5mC]*eA*eG*eA*eT*eA*eA*eA*e[5mC]*eA*eG*eA*eG*eT*eG*eG*eA*eA) [compound 328097] .
A: 63 percentage of untreated control (UTC)

Q: // fetch PPAR gamma mRNA given entry 327945 (antisense e[5mC]*eT*eG*eT*eT*e[5mC]*e[5mC]*eT*eG*e[5mC]*eT*eG*eA*eA*e[5mC]*eT*eG*eA*eG*e[5mC]*e[5mC]*eA) [compound 327945]
A: 51 percentage of untreated control (UTC)

###

System: PPARγ
procedure_summary: PPARγ mRNA expression in adipocytes (real-time PCR)
Type: cell-based, human
assay_conditions: differentiating adipocytes transfected with oligomeric compound; Table 75
In the oligonucleotide strings, read from the 5' end, every base follows the letter of its sugar. An asterisk marks phosphorothioate; unmarked linkages are phosphodiester. Other units and linkages are bracketed, terminal groups are in braces. A string of capitals states the bases alone. e = 2'-O-(2-methoxyethyl) (MOE); [5mC] = 5-methylcytosine
Below, each of the substances is paired with its reported PPAR gamma mRNA value.

Recorded PPAR gamma mRNA, per entry:
>  <substance>
328120 (antisense eA*eA*eG*eA*eA*eG*eG*eA*eA*eG*eG*eA*eG*eG*eG*eA*eA*eA*eG*e[5mC]*eA) [compound 328120]

>  <PPAR gamma mRNA>
73 percentage of untreated control (UTC)

$$$$
>  <substance>
328134 (eA*eA*eT*eT*eG*eG*eA*e[5mC]*eA*eA*eA*eG*eT*eG*e[5mC]*e[5mC]*eT*eT*eT*e[5mC]*eA; anti-miR) [compound 328134]

>  <PPAR gamma mRNA>
86 percentage of untreated control (UTC)

$$$$
>  <substance>
327895 (antisense eA*e[5mC]*eA*eA*eA*e[5mC]*eA*e[5mC]*e[5mC]*eA*eT*eT*eG*eT*e[5mC]*eA*e[5mC]*eA*e[5mC]*eT*e[5mC]*e[5mC]*eA) [compound 327895]

>  <PPAR gamma mRNA>
86 percentage of untreated control (UTC)

$$$$
>  <substance>
328101 (antisense eA*eA*eA*e[5mC]*e[5mC]*e[5mC]*e[5mC]*eT*eA*eT*e[5mC]*eA*e[5mC]*eG*eA*eT*eT*eA*eG*e[5mC]*eA) [compound 328101]

>  <PPAR gamma mRNA>
70 percentage of untreated control (UTC)

$$$$
>  <substance>
327971 (antisense eG*eG*eA*eA*eA*eT*e[5mC]*e[5mC]*e[5mC]*eT*eG*eG*e[5mC]*eA*eA*eT*eG*eT*eG*eA*eT) [compound 327971]

>  <PPAR gamma mRNA>
69 percentage of untreated control (UTC)

$$$$
>  <substance>
328135 (eA*e[5mC]*e[5mC]*eG*eA*eA*e[5mC]*eA*eA*eA*eG*eT*e[5mC]*eT*eG*eA*e[5mC]*eA*eG*eG*eA; anti-miR) [compound 328135]

>  <PPAR gamma mRNA>
33 percentage of untreated control (UTC)

$$$$
>  <substance>
341798 (antisense GCAUUAUUACUCACGGUACGA; all 2'-MOE, all phosphorothioate, methylation of C and T or U not given here) [compound 341798]

>  <PPAR gamma mRNA>
70 percentage of untreated control (UTC)

$$$$
>  <substance>
346689 (CAUCAUUACCAGGCAGUAUUAGAG; all 2'-MOE, all phosphorothioate, methylation of C and T or U not given here) [compound 346689]

>  <PPAR gamma mRNA>
64 percentage of untreated control (UTC)

$$$$

As a next step, examine the substance that follows.
Q: Could you please provide reported PPAR gamma mRNA for 328118 (antisense eT*eA*eT*eT*eA*eT*e[5mC]*eA*eG*e[5mC]*eA*eT*e[5mC]*eT*eG*e[5mC]*eT*eT*eG*e[5mC]*eA) [compound 328118] ? Thanks!
A: 72 percentage of untreated control (UTC)

###

Test system: PPARγ
procedure_summary: PPARγ mRNA expression in adipocytes (real-time PCR)
Assay type: cell-based, human
assay_conditions: Table 18; differentiating adipocytes; control = treatment with ISIS 342673
In the oligonucleotide strings, read from the 5' end, every base follows the letter of its sugar. An asterisk marks phosphorothioate; unmarked linkages are phosphodiester. Other units and linkages are bracketed, terminal groups are in braces. A string of capitals states the bases alone. e = 2'-O-(2-methoxyethyl) (MOE); [5mC] = 5-methylcytosine
recorded_endpoint: PPAR gamma mRNA

>  <substance>
328115 (antisense eA*eG*eA*eA*eG*eG*eT*eG*eG*eG*eG*eA*eG*e[5mC]*eA*eG*e[5mC]*eG*eT*e[5mC]*eA) [compound 328115]

>  <PPAR gamma mRNA>
95.8 percentage of control

$$$$
>  <substance>
341806 (antisense GCCAATATTTCTGTGCTGCTA; all 2'-MOE, all phosphorothioate, methylation of C not given here) [compound 341806]

>  <PPAR gamma mRNA>
72.6 percentage of control

$$$$
>  <substance>
328102 (antisense eG*e[5mC]*e[5mC]*e[5mC]*e[5mC]*eA*eT*eT*eA*eA*eT*eA*eT*eT*eT*eT*eA*eA*e[5mC]*e[5mC]*eA) [compound 328102]

>  <PPAR gamma mRNA>
93.7 percentage of control

$$$$
>  <substance>
341807 (antisense CTGGGACTTTGTAGGCCAGTT; all 2'-MOE, all phosphorothioate, methylation of C not given here) [compound 341807]

>  <PPAR gamma mRNA>
86.2 percentage of control

$$$$

Q: Output PPAR gamma mRNA of 328105 (antisense e[5mC]*e[5mC]*eT*e[5mC]*eA*eA*eT*eT*eA*eT*eT*eG*eG*eA*eA*eA*eT*e[5mC]*eA*e[5mC]*eA) [compound 328105]
A: 93.3 percentage of control
